system: mouse SGLT2 mRNA; experiment: Mouse SGLT2 mRNA levels in kidney, MOE versus Methyleneoxy BNA gapmers, Balb/c mice (Example 15, Table 69); assay type: in vivo; settings: 125 nmol/kg i.p. twice per week for three weeks
Strand notation (5' to 3'): a small letter for the sugar, then the base; units joined by * are phosphorothioate-linked, units joined directly phosphodiester-linked; [ ] holds rarer units or linkages, { } end groups; capitals alone tell only the bases. e = 2'-O-(2-methoxyethyl) (MOE); l = locked nucleic acid (LNA); [5mC] = 5-methylcytosine; d = 2'-deoxy (DNA)
METRIC: SGLT2 mRNA, percent change relative to saline treated animals
Answer with the number, then the unit.

As a guide, the following entries are already answered.
SUBSTANCE	OBSERVED MEASUREMENT
ISIS 388625: SGLT2; TGTTCCAGCCCA 2-8-2 MOE Gapmer (antisense eT*eG*dT*dT*d[5mC]*d[5mC]*dA*dG*d[5mC]*d[5mC]*e[5mC]*eA)	−70 percent change
ISIS 379692: SGLT2; 1-10-1 MOE gapmer (antisense eT*dG*dT*dT*d[5mC]*d[5mC]*dA*dG*d[5mC]*d[5mC]*d[5mC]*eA)	−58 percent change
ISIS 392173: SGLT2; 2-8-2 Methyleneoxy BNA Gapmer (antisense lT*lG*dT*dT*d[5mC]*d[5mC]*dA*dG*d[5mC]*d[5mC]*l[5mC]*lA)	−75 percent change

Switching to the query record.
Any idea what SGLT2 mRNA, percent change relative to saline treated animals was measured for ISIS 392170: SGLT2; 1-10-1 Methyleneoxy BNA Gapmer (antisense lT*dG*dT*dT*d[5mC]*d[5mC]*dA*dG*d[5mC]*d[5mC]*d[5mC]*lA) ?
−69 percent change
